System: Woodchuck hepatitis virus
Assay Remarks: Antiviral activity against Woodchuck hepatitis virus infected in woodchuck assessed as frequency of hepatocytes expressing viral antigen at 15 mg/kg, po qd for 48 weeks measured on 60th week
Assay type: functional, Hepatocyte
Measured Quantity: Activity (%)
Give your result in % as a bare value.

Examples with answers:
[[record]]
compound = "Nc1nc(=O)n([C@@H]2CS[C@H](CO)O2)cc1F"
measured_quantity = "Activity"
quantitative_readout = 10

[[record]]
compound = "Nc1ccn([C@@H]2CS[C@H](CO)O2)c(=O)n1"
measured_quantity = "Activity"
quantitative_readout = 5

[[record]]
compound = "CC(C)(C)C(=O)OCOP(=O)(COCCn1cnc2c(N)ncnc21)OCOC(=O)C(C)(C)C"
measured_quantity = "Activity"
quantitative_readout = 1


// Activity value for CC(C)OC(=O)OCOP(=O)(CO[C@H](C)Cn1cnc2c(N)ncnc21)OCOC(=O)OC(C)C.O=C(O)/C=C/C(=O)O [TENOFOVIR DISOPROXIL FUMARATE] : 2
